Test system: Human immunodeficiency virus 1
assay details: Antiviral activity against HIV-1 harboring Y181C mutant infected in human MT4 cells assessed as inhibition of virus induced cytotoxicity incubated for 5 days by spectrophometry based MTT assay
Type: functional, organism-based
measurement setup: Human immunodeficiency virus 1, MT4, 120 h
measured attribute: EC50 (nM)

> print(dat)
                              line.notation               target.under.test  measured.attribute  readout.number
1  Cc1cc(C)cc(S(=O)(=O)c2c(C(=O)NCc3cn(Cc4cccc5ccccc45)nn3)[nH]c3ccc(Cl)cc23)c1  Human immunodeficiency virus 1                EC50             620
2  Cc1cc(C)cc(S(=O)(=O)c2c(C(=O)NCc3cn(Cc4ccccc4[N+](=O)[O-])nn3)[nH]c3ccc(Cl)cc23)c1  Human immunodeficiency virus 1                EC50             290
3  COC(=O)Cn1cc(CNC(=O)c2[nH]c3ccc(Cl)cc3c2S(=O)(=O)c2cc(C)cc(C)c2)nn1  Human immunodeficiency virus 1                EC50             800
4  Cc1cc(C)cc(S(=O)(=O)c2c(C(=O)NCc3cn(Cc4cccc([N+](=O)[O-])c4)nn3)[nH]c3ccc(Cl)cc23)c1  Human immunodeficiency virus 1                EC50            3040
5  Cc1cc(C)cc(S(=O)(=O)c2c(C(=O)NCc3cn(CCc4ccccc4)nn3)[nH]c3ccc(Cl)cc23)c1  Human immunodeficiency virus 1                EC50            2510
6  CCOC(=O)Cn1cc(CNC(=O)c2[nH]c3ccc(Cl)cc3c2S(=O)(=O)c2cc(C)cc(C)c2)nn1  Human immunodeficiency virus 1                EC50             630
7  Cc1cc(C)cc(S(=O)(=O)c2c(C(=O)NCc3cn(CSc4ccccc4)nn3)[nH]c3ccc(Cl)cc23)c1  Human immunodeficiency virus 1                EC50             670
8  Cc1cc(C)cc(S(=O)(=O)c2c(C(=O)NCc3cn(Cc4cccc(C#N)c4)nn3)[nH]c3ccc(Cl)cc23)c1  Human immunodeficiency virus 1                EC50            1100
9  Cc1cc(C)cc(S(=O)(=O)c2c(C(=O)NCc3cn(CCCc4ccccc4)nn3)[nH]c3ccc(Cl)cc23)c1  Human immunodeficiency virus 1                EC50            2710

====

Test system: Human immunodeficiency virus 1
assay details: Antiviral activity against HIV-1 harboring L100I mutant infected in human MT4 cells assessed as inhibition of virus induced cytotoxicity incubated for 5 days by spectrophometry based MTT assay
Assay type: functional, organism-based
measurement setup: Human immunodeficiency virus 1, MT4, 120 h
Flag rule - EC50 less than 300 nM flags label 1; the remaining entries get label 0.

> print(dat)
                              line.notation    class
1  Cc1cc(C)cc(S(=O)(=O)c2c(C(=O)NCc3cn(CCc4ccccc4)nn3)[nH]c3ccc(Cl)cc23)c1  label 0
2  Cc1cc(C)cc(S(=O)(=O)c2c(C(=O)NCc3cn(Cc4cccc([N+](=O)[O-])c4)nn3)[nH]c3ccc(Cl)cc23)c1  label 0
3  COC(=O)Cn1cc(CNC(=O)c2[nH]c3ccc(Cl)cc3c2S(=O)(=O)c2cc(C)cc(C)c2)nn1  label 1
4  Cc1cc(C)cc(S(=O)(=O)c2c(C(=O)NCc3cn(CSc4ccccc4)nn3)[nH]c3ccc(Cl)cc23)c1  label 1
5  Cc1cc(C)cc(S(=O)(=O)c2c(C(=O)NCc3cn(Cc4ccccc4[N+](=O)[O-])nn3)[nH]c3ccc(Cl)cc23)c1  label 1
6  Cc1cc(C)cc(S(=O)(=O)c2c(C(=O)NCc3cn(CCCc4ccccc4)nn3)[nH]c3ccc(Cl)cc23)c1  label 0
7  Cc1cc(C)cc(S(=O)(=O)c2c(C(=O)NCc3cn(Cc4cccc(C#N)c4)nn3)[nH]c3ccc(Cl)cc23)c1  label 0
8  Cc1cc(C)cc(S(=O)(=O)c2c(C(=O)NCc3cn(CC(=O)Nc4ccc(Br)cc4)nn3)[nH]c3ccc(Cl)cc23)c1  label 0

====

Form field: selectivity ratio (one value per entry).
assay details: Selectivity index, ratio of CC50 for cytotoxicity against human MT4 cells to EC50 for antiviral activity against wild-type HIV-1 IIIB infected in human MT4 cells
Assay type: toxicity, cell-based
measurement setup: read-out: Ratio CC50/EC50
measured attribute: selectivity ratio

> print(dat)
                                    molecule  measured.attribute  inequality.operator  readout.number
 1  Cc1cc(C)cc(S(=O)(=O)c2c(C(=O)NCc3cn(CC(=O)Nc4ccc(F)cc4)nn3)[nH]c3ccc(Cl)cc23)c1   selectivity ratio                    =             188
 2  Cc1cc(C)cc(S(=O)(=O)c2c(C(=O)NCc3cn(Cc4ccccc4[N+](=O)[O-])nn3)[nH]c3ccc(Cl)cc23)c1   selectivity ratio                    >            9120
 3  COC(=O)Cn1cc(CNC(=O)c2[nH]c3ccc(Cl)cc3c2S(=O)(=O)c2cc(C)cc(C)c2)nn1   selectivity ratio                    =             143
 4  CCOC(=O)Cn1cc(CNC(=O)c2[nH]c3ccc(Cl)cc3c2S(=O)(=O)c2cc(C)cc(C)c2)nn1   selectivity ratio                    >            7330
 5  Cc1cc(C)cc(S(=O)(=O)c2c(C(=O)NCc3cn(CCCc4ccccc4)nn3)[nH]c3ccc(Cl)cc23)c1   selectivity ratio                    =             302
 6  Cc1cc(C)cc(S(=O)(=O)c2c(C(=O)NCc3cn(CCc4ccccc4)nn3)[nH]c3ccc(Cl)cc23)c1   selectivity ratio                    =            1080
 7  Cc1ccnc2c1NC(=O)c1cccnc1N2C1CC1 [NEVIRAPINE]   selectivity ratio                    >              92
 8  Cc1cc(C)cc(S(=O)(=O)c2c(C(=O)NCc3cn(Cc4cccc5ccccc45)nn3)[nH]c3ccc(Cl)cc23)c1   selectivity ratio                    >            3510
 9  Cc1cc(C)cc(S(=O)(=O)c2c(C(=O)NCc3cn(Cc4cccc([N+](=O)[O-])c4)nn3)[nH]c3ccc(Cl)cc23)c1   selectivity ratio                    >             939
10  Cc1cc(C)cc(S(=O)(=O)c2c(C(=O)NCc3cn(CSc4ccccc4)nn3)[nH]c3ccc(Cl)cc23)c1   selectivity ratio                    >            5510
11  Cc1cc(C)cc(S(=O)(=O)c2c(C(=O)NCc3cn(CC(=O)Nc4ccc(Br)cc4)nn3)[nH]c3ccc(Cl)cc23)c1   selectivity ratio                    =             231
12  Cc1cn([C@H]2C[C@H](N=[N+]=[N-])[C@@H](CO)O2)c(=O)[nH]c1=O [ZIDOVUDINE]   selectivity ratio                    >             397
13  Cc1cc(C)cc(S(=O)(=O)c2c(C(=O)NCc3cn(CC(=O)Nc4ccc(C(F)(F)F)cc4)nn3)[nH]c3ccc(Cl)cc23)c1   selectivity ratio                    =             148
14  Nc1ccn([C@@H]2CS[C@H](CO)O2)c(=O)n1 [LAMIVUDINE]   selectivity ratio                    >              17
15  Cc1cc(C)cc(S(=O)(=O)c2c(C(=O)NCc3cn(Cc4cccc(C#N)c4)nn3)[nH]c3ccc(Cl)cc23)c1   selectivity ratio                    =            2680
16  Cc1cc(C#N)cc(C)c1Oc1nc(Nc2ccc(C#N)cc2)nc(N)c1Br [ETRAVIRINE]   selectivity ratio                    >            1640
17  COC(=O)CCCn1cc(CNC(=O)c2[nH]c3ccc(Cl)cc3c2S(=O)(=O)c2cc(C)cc(C)c2)nn1   selectivity ratio                    =            5810

====

target under test: Human immunodeficiency virus type 1 reverse transcriptase (Human immunodeficiency virus 1) (UniProt Q72547)
assay details: Inhibition of recombinant HIV-1 reverse transcriptase at 0.66 mM incubated for 1 hr by ELISA relative to control
Form field: inhibition (one value per entry).
measured attribute: inhibition

> print(dat)
                               line.notation  result
 1  Cc1ccc(Cn2cc(CNC(=O)c3[nH]c4ccc(Cl)cc4c3S(=O)(=O)c3cc(C)cc(C)c3)nn2)cc1   < 85%
 2  Cc1cc(C)cc(S(=O)(=O)c2c(C(=O)NCc3cn(CCN4C(=O)c5ccccc5C4=O)nn3)[nH]c3ccc(Cl)cc23)c1   < 85%
 3  Cc1cc(C)cc(S(=O)(=O)c2c(C(=O)NCc3cn(CC(=O)Nc4ccc(F)cc4)nn3)[nH]c3ccc(Cl)cc23)c1   > 85%
 4  Cc1cc(C)cc(S(=O)(=O)c2c(C(=O)NCc3cn(Cc4cccc(C#N)c4)nn3)[nH]c3ccc(Cl)cc23)c1   > 85%
 5  Cc1cc(C)cc(S(=O)(=O)c2c(C(=O)NCc3cn(CC(=O)Nc4ccc(Br)cc4)nn3)[nH]c3ccc(Cl)cc23)c1   > 85%
 6  Cc1cc(C)cc(S(=O)(=O)c2c(C(=O)NCc3cn(Cc4ccc(C(N)=O)cc4)nn3)[nH]c3ccc(Cl)cc23)c1   < 85%
 7  Cc1cc(C)cc(S(=O)(=O)c2c(C(=O)NCc3cn(Cc4ccc(S(N)(=O)=O)cc4)nn3)[nH]c3ccc(Cl)cc23)c1   < 85%
 8  Cc1cc(C)cc(S(=O)(=O)c2c(C(=O)NCc3cn(Cc4ccccc4C)nn3)[nH]c3ccc(Cl)cc23)c1   < 85%
 9  Cc1cc(C)cc(S(=O)(=O)c2c(C(=O)NCc3cn(CC(=O)Nc4ccc(S(C)(=O)=O)cc4)nn3)[nH]c3ccc(Cl)cc23)c1   < 85%
10  Cc1cc(C)cc(S(=O)(=O)c2c(C(=O)NCc3cn(-c4ccc5c(c4)OCO5)nn3)[nH]c3ccc(Cl)cc23)c1   < 85%
11  Cc1cc(C)cc(S(=O)(=O)c2c(C(=O)NCc3cn(Cc4ccccc4[N+](=O)[O-])nn3)[nH]c3ccc(Cl)cc23)c1   > 85%
12  Cc1cc(C)cc(S(=O)(=O)c2c(C(=O)NCc3cn(Cc4cccc(Cl)c4)nn3)[nH]c3ccc(Cl)cc23)c1   < 85%
13  Cc1cc(C)cc(S(=O)(=O)c2c(C(=O)NCc3cn(Cc4ccc([N+](=O)[O-])cc4)nn3)[nH]c3ccc(Cl)cc23)c1   < 85%
14  Cc1cc(C)cc(S(=O)(=O)c2c(C(=O)NCc3cn(Cc4ccc(C#N)cc4)nn3)[nH]c3ccc(Cl)cc23)c1   < 85%
15  Cc1cc(C)cc(S(=O)(=O)c2c(C(=O)NCc3cn(CC(=O)N4CCCC4)nn3)[nH]c3ccc(Cl)cc23)c1   < 85%
